meta.source: the RNAGym collection of RNA variant scans (doi:10.1021/acssynbio.7b00057)

aptazyme ON/OFF ratio reference
B1: Pistol ribozyme (parent)
chain: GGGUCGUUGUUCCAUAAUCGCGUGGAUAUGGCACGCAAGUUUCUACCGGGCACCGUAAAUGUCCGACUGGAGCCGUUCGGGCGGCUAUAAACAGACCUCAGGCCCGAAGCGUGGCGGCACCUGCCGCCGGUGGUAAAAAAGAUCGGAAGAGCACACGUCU

variants of: B1; experiment: aptazyme ON/OFF ratio, guanine; higher = stronger switching; co-transcriptional cleavage with and without guanine
Quantity Measured: aptazyme ON/OFF ratio

> print(dat)
                 variant.identifier  readout.value
 1      U7C G9U U10G U11A C12A C13U           1.44
 2                U7C U8C C12G C13U           1.15
 3          U7A U10G U11C C12A C13U            1.2
 4           U7G G9C U11C C12A C13U            1.5
 5  U7A U8G G9C U10A U11G C12G C13G           1.72
 6       U7A U8G G9C U10C C12U C13U           1.38
 7                 U7G U8G G9C C12U           1.94
 8  U7A U8G G9A U10G U11G C12U C13A           1.33
 9            U7A U8C G9U U10G U11A           1.06
10  U7G U8A G9A U10C U11G C12A C13G           1.07
11       U7A U8C G9A U10A C12U C13U           1.12
12            U7C U8G G9C U10G C13G            1.2
13            U7G U8G G9C U11C C13U           1.33
14                     U7G G9U C12G           1.42
15           U7G U8C U10G U11C C12U           1.34
16                    G9C U10G U11C           1.06
17       U7G U8G G9A U11A C12A C13U           1.38
18                U8A G9A U11G C13U           1.17
19  U7A U8G G9U U10C U11A C12G C13A           1.27
20           U7C U8C U10G U11G C13U           1.16
21       U7G U8C G9U U10A C12U C13G           1.16
22                     U7G U8G C12A           1.25
23                 U7A U8G G9A U10C            2.9
24  U7A U8G G9A U10A U11G C12A C13A            1.1
25               U7A U10C C12G C13G           1.35
26                U7A U8G U11C C12U           1.31
27                U7C U8C U11A C12A           1.34
28                U7G G9C C12A C13U           1.34
29            U7A U8A G9U U11G C12A            1.1
30               U8A U10A U11C C12U           1.01
31                     U8C G9U U11G           1.48
32           U7G U8G U10C U11G C12A           1.41
33          G9U U10A U11C C12U C13G           1.39
34  U7C U8A G9U U10G U11C C12G C13G           1.23
35  U7A U8C G9A U10G U11G C12G C13A           1.42
36           U7C U8A U10C U11G C13A           1.17
37           U8A G9U U10C U11A C12G           1.06
38           U7G U8C U11G C12U C13G           1.08
39           U7A U8A U10G U11A C12U           1.24
40               U8C U10G U11C C13A           1.05
41  U7G U8A G9C U10C U11G C12U C13G           1.03
42      U7C G9C U10A U11C C12G C13G           1.27
43      U7A U8G U10G U11G C12A C13A           1.22
44      U8C G9A U10A U11A C12A C13A           1.15
45            U7A U8G G9A C12U C13A           1.28
46          U7C U10A U11A C12G C13U           1.17
47      U8A G9U U10G U11G C12A C13A           1.16
48      U7G U8C U10G U11C C12A C13G           1.17
49      U7G U8C U10C U11A C12A C13U           1.21
50  U7A U8A G9C U10G U11G C12A C13U           1.41
51          U7A U10A U11C C12A C13U           1.11
52              U10G U11C C12G C13G           1.14
53      U8C G9U U10C U11C C12U C13U           1.07
54                U8A G9C U10C C13G           1.01
55       U7C U8C G9C U10G U11C C13U           1.08
56      U7C G9C U10A U11C C12U C13U           1.03
57           U8G G9C U10C U11C C12G           1.06
58  U7G U8A G9A U10C U11G C12G C13U           1.08
59            U7A U8A G9C U10C C13A           1.04
60            U7C U8G G9A U10G U11C           1.06
61  U7A U8C G9U U10G U11C C12U C13A            1.2
62  U7G U8A G9U U10A U11G C12A C13U           1.09
63  U7C U8A G9U U10G U11C C12U C13A           1.16
64               G9A U10A U11G C13U           1.51
65            U7G U8G G9U U10A U11A           2.87
66  U7A U8C G9U U10A U11G C12A C13A           1.08
67                U7C U8A C12G C13G           1.23
68            U7G U8A G9A U11A C12U           1.25
69                   U10A U11A C12A           1.18
70                U7C G9U U10C C13A           1.04
71                    U8G U11A C13G           1.11
72  U7A U8A G9U U10A U11A C12G C13U           1.04
73                     U7C G9C U11C           1.03
74      U8G G9A U10A U11G C12G C13A           1.34
75               U7C U10C U11A C12U           1.42
76      U7A G9C U10A U11C C12U C13A            1.1
